- system under test: T1, Glypican-3 on human HCC cells (Hep3B, HepG2) and in HCC tissue (human, UniProt P51654 25-554)
- T1 construct: whole, on cells; Endogenous GPC3 on cells; also used here for GPC3 in sections of Hep3B xenografts and human HCC specimens; also called GPC3
- T1 sequence (P51654 25-554 limits assumed): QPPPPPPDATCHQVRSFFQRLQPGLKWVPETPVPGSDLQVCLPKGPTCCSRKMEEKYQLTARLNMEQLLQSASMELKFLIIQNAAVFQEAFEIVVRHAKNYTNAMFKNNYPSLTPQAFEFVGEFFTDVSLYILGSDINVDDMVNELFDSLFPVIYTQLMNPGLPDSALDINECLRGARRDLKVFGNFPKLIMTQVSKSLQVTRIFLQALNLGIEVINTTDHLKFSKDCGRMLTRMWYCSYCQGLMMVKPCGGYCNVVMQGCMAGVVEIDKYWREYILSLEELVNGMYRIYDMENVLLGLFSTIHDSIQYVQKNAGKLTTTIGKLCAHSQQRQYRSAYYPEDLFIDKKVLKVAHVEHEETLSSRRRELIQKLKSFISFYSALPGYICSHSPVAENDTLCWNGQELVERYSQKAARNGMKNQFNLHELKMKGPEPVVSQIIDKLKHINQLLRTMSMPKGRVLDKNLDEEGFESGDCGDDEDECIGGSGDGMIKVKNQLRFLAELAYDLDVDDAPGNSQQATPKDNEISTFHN
- assay name: affinity restated in the discussion of the studies (flow cytometry on Hep3B cells)
- Description: The apparent dissociation constant (kd) was measured for the optimized GPC3 peptide to Hep3B cells to provide an assessment of peptide binding affinity. […] The mean fluorescence intensities was measured on flow cytometry. The equilibrium dissociation constant kd=1/kₐ was calculated by performing a least squares fit of the data to the non-linear equation I=(I₀+Iₘₐₓkₐ[X])/(I₀+kₐ[X]). […]
Ends that are not written are not given here.
measured property: pKd
Give only the number. pKd is defined as minus log10 of concentration in molar units.

Q: Give its pKd value. Item: ALLANHEELFQTGGGSK(sulfo‑Cy5.5) (also called lead candidate GPC3 peptide; optimized GPC3 peptide) [ALL*-Cy5.5 peptide reagent (ALLANHEELFQT-GGGSK-Cy5.5)]
Result: 7.15
